- test.system: T1, ALPL expressed on the surface of CHO cells (CHO-ALPL) (Homo sapiens, UniProt P05186)
- T1 construct: expressed in transfected cells
- T1 sequence (P05186 18-501 limits assumed): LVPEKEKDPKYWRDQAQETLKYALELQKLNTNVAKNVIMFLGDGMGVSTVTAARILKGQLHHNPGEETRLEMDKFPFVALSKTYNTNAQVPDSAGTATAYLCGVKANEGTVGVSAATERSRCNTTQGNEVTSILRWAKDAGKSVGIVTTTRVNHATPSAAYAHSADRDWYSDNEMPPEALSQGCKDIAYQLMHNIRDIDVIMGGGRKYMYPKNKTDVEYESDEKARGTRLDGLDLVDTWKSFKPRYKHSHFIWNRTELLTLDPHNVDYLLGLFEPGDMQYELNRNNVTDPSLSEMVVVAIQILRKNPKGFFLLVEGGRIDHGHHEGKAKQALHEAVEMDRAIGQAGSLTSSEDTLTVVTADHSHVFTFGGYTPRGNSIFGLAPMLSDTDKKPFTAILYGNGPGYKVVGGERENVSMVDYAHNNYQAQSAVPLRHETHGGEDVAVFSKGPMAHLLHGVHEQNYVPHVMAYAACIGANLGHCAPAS
- procedure.text: Cell-surface binding by flow cytometry, CHO-ALPL
- condition.set: VHH His proteins

molecule	KDapp CHO-ALPL
A05: ALPP/ALPPL2 targeting VHH domain, SEQ ID NO: 16; tested C-terminally His-tagged (protein, C-terminal His tag, tested C-terminally His-tagged) VHH: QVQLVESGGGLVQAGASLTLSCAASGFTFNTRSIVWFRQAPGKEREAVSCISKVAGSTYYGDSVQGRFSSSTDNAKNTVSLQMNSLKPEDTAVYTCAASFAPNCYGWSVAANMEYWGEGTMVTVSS	No binding
D10: ALPP targeting VHH domain, SEQ ID NO: 28 (protein) VHH: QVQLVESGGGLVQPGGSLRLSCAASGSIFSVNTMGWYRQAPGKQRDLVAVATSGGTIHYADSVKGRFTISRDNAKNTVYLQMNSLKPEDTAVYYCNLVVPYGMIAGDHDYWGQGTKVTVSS	No binding
F08: ALPP/ALPPL2 targeting VHH domain, SEQ ID NO: 35 (protein) VHH: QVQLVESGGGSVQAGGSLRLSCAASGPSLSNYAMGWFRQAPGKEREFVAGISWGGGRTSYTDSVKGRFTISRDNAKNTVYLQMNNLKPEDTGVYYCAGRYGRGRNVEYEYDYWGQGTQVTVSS	No binding
